Entry source: PubChem BioAssay AID1963426

System: 186277-243-T-J2-PDC complex spheroid growth, % test/control
PROCEDURE_TEXT: Anticancer human tumor 186277-243-T-J2-PDC patient-derived colon adenocarcinoma cell line growth inhibition [Asc]
CONDITION_NOTES: second compound 0.1 µM; first compound 1 µM; active compounds read low
REPORTED_ENDPOINT: viability, T/C

For orientation, consider the following solved cases.
COMPOUND	RESULT
CNC(C)C(=O)NC1CN(S(=O)(=O)c2cccc(S(=O)(=O)N3CCC4CCC(C(=O)NC(c5ccccc5)c5ccccc5)N4C(=O)C(NC(=O)C(C)NC)C3)c2)CCC2CCC(C(=O)NC(c3ccccc3)c3ccccc3)N2C1=O (stereo not drawn) + Cc1c(S(C)(=O)=O)c(-c2cc(F)cc(N3CCN(c4ccc(NS(=O)(=O)c5ccc(NC(CCN6CCC(C(=O)OCCCP(=O)(O)O)CC6)CSc6ccccc6)c(S(=O)(=O)C(F)(F)F)c5)cc4)CC3)c2)c(-c2ccc(Cl)cc2)n1C(C)C	110%
C=C(F)C(=O)N1CCN(c2nc(OCC3CCCN3C)nc3c2CCN(c2cccc4cccc(Cl)c24)C3)CC1CC#N (stereo not drawn) + Cc1c(S(C)(=O)=O)c(-c2cc(F)cc(N3CCN(c4ccc(NS(=O)(=O)c5ccc(NC(CCN6CCC(C(=O)OCCCP(=O)(O)O)CC6)CSc6ccccc6)c(S(=O)(=O)C(F)(F)F)c5)cc4)CC3)c2)c(-c2ccc(Cl)cc2)n1C(C)C	110%

Q. Identify the reported viability, T/C for the following entry. O=C(c1cc(Cc2n[nH]c(=O)c3ccccc23)ccc1F)N1CCN(C(=O)C2CC2)CC1 + Cc1c(S(C)(=O)=O)c(-c2cc(F)cc(N3CCN(c4ccc(NS(=O)(=O)c5ccc(NC(CCN6CCC(C(=O)OCCCP(=O)(O)O)CC6)CSc6ccccc6)c(S(=O)(=O)C(F)(F)F)c5)cc4)CC3)c2)c(-c2ccc(Cl)cc2)n1C(C)C
A. 114%

---

Tested on: 186277-243-T-J2-PDC complex spheroid growth, % test/control
PROCEDURE_TEXT: Anticancer human tumor 186277-243-T-J2-PDC cell line growth inhibition [Asc];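 note: spheroids exposed to agents for 7 days; 100% = DMSO vehicle control wells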
CONDITION_NOTES: second compound 0.949 µM; first compound 3.16 µM; active compounds read low
REPORTED_ENDPOINT: viability, T/C (%)
Give bare numbers, in %.

Answered examples (3):
MOLECULE	UNITS_TEXT	viability, T/C
C=CC(=O)N1CCN(c2nc(=O)n(-c3c(C)ccnc3C(C)C)c3nc(-c4c(O)cccc4F)c(F)cc23)C(C)C1 (centres undefined) + CCN1C(C(=O)NC23CCC(C(=O)O)(CC2)CC3)C(c2cccc(Cl)c2F)C2(C(=O)Nc3cc(Cl)ccc32)C12CCCCC2	%	51.4
C#Cc1c(F)ccc2cc(O)cc(-c3ncc4c(N5CC6CCC(C5)N6)nc(OCC56CCCN5CC(F)C6)nc4c3F)c12 (centres undefined) + CCN1C(C(=O)NC23CCC(C(=O)O)(CC2)CC3)C(c2cccc(Cl)c2F)C2(C(=O)Nc3cc(Cl)ccc32)C12CCCCC2	%	1.53
C=C(F)C(=O)N1CCN(c2nc(OCC3CCCN3C)nc3c2CCN(c2cccc4cccc(Cl)c24)C3)CC1CC#N (centres undefined) + CCN1C(C(=O)NC23CCC(C(=O)O)(CC2)CC3)C(c2cccc(Cl)c2F)C2(C(=O)Nc3cc(Cl)ccc32)C12CCCCC2	%	35.6

Then this molecule:
Q. Could you please provide reported viability, T/C for O=C(c1cc(Cc2n[nH]c(=O)c3ccccc23)ccc1F)N1CCN(C(=O)C2CC2)CC1 + CCN1C(C(=O)NC23CCC(C(=O)O)(CC2)CC3)C(c2cccc(Cl)c2F)C2(C(=O)Nc3cc(Cl)ccc32)C12CCCCC2 ? Thanks!
A. 47
